Source of measurements: patent US10961278B2

Assay Comment: In vivo pharmacokinetic assay in mice
Particulars: male CD-1 mice, intravenous single dose 5 mg/kg
Entries and their measured log10 CL_obs follow.
Measurement Kind: log10 CL_obs (log10 of the value in mL/min/kg)

CN[C@H](CC(C)C)C(=O)N[C@H]1C(=O)N[C@@H](CC(N)=O)C(=O)N[C@H]2C(=O)N[C@@H]3C(=O)N[C@H](C(=O)N[C@H](C(=O)O)c4cc(O)c(CNC5C(O)OC(CO)[C@H](O)[C@@H]5O)c(O)c4-c4cc3ccc4O)[C@H](O)c3ccc(c(Cl)c3)Oc3cc2cc(c3O[C@@H]2O[C@H](CO)C(O)C(O)[C@H]2O[C@H]2CC(C)(NCc3ccc(-c4ccc(C(F)(F)F)cc4)cc3)[C@H](O)[C@H](C)O2)Oc2ccc(cc2Cl)[C@H]1O (some centres unmarked) [Van032]; 0.54
CN[C@H](CC(C)C)C(=O)N[C@H]1C(=O)N[C@@H](CC(N)=O)C(=O)N[C@H]2C(=O)N[C@H]3C(=O)N[C@H](C(=O)N[C@H](C(=O)O)c4cc(O)cc(O)c4-c4cc3ccc4O)[C@H](O)c3ccc(c(Cl)c3)Oc3cc2cc(c3O[C@@H]2O[C@H](CO)[C@@H](O)[C@H](O)[C@H]2O[C@H]2C[C@](C)(N)[C@H](O)[C@H](C)O2)Oc2ccc(cc2Cl)[C@H]1O [Vanco., vancomycin]; 1.84
CN[C@H](CC(C)C)C(=O)N[C@H]1C(=O)N[C@@H](CC(N)=O)C(=O)N[C@H]2C(=O)N[C@@H]3C(=O)N[C@H](C(=O)N[C@H](C(=O)O)c4cc(O)c(CNC5C(O)OC(CO)[C@H](O)[C@@H]5O)c(O)c4-c4cc3ccc4O)[C@H](O)c3ccc(c(Cl)c3)Oc3cc2cc(c3O[C@@H]2O[C@H](CO)C(O)C(O)[C@H]2O[C@H]2CC(C)(NCc3ccc(-c4ccc(Cl)cc4)cc3)[C@H](O)[C@H](C)O2)Oc2ccc(cc2Cl)[C@H]1O (some centres unmarked) [Van038]; 0.85
CN[C@H](CC(C)C)C(=O)N[C@H]1C(=O)N[C@@H](CC(N)=O)C(=O)N[C@H]2C(=O)N[C@H]3C(=O)N[C@H](C(=O)N[C@H](C(=O)O)c4cc(O)c(CNCCO[C@@H]5OC(CO)[C@H](O)C(O)C5O)c(O)c4-c4cc3ccc4O)[C@H](O)c3ccc(c(Cl)c3)Oc3cc2cc(c3OC2O[C@H](CO)C(O)C(O)[C@H]2O[C@@H]2CC(C)[C@@H](O)C(C)(NCc3ccc(-c4ccc(C(F)(F)F)cc4)cc3)C2)Oc2ccc(cc2Cl)[C@H]1O (some centres unmarked) [Van037]; 0.65
CCCCCCCCCCNCCN[C@@]1(C)C[C@H](O[C@H]2[C@H](Oc3c4cc5cc3Oc3ccc(cc3Cl)[C@@H](O)[C@@H](NC(=O)[C@@H](CC(C)C)NC)C(=O)N[C@@H](CC(N)=O)C(=O)N[C@H]5C(=O)N[C@H]3C(=O)N[C@H](C(=O)N[C@H](C(=O)O)c5cc(O)c(CNCP(=O)(O)O)c(O)c5-c5cc3ccc5O)[C@H](O)c3ccc(c(Cl)c3)O4)O[C@H](CO)[C@@H](O)[C@@H]2O)O[C@@H](C)[C@H]1O [Tela., telavancin, reference compound]; 0.71

----------
Assay Comment: In vivo pharmacokinetic assay in mice
Particulars: male, CD-1, mouse, in vivo, iv, 5 mg/kg
Measurement Kind: half-life

CN[C@H](CC(C)C)C(=O)N[C@H]1C(=O)N[C@@H](CC(N)=O)C(=O)N[C@H]2C(=O)N[C@@H]3C(=O)N[C@H](C(=O)N[C@H](C(=O)O)c4cc(O)c(CNC5C(O)OC(CO)[C@H](O)[C@@H]5O)c(O)c4-c4cc3ccc4O)[C@H](O)c3ccc(c(Cl)c3)Oc3cc2cc(c3O[C@@H]2O[C@H](CO)C(O)C(O)[C@H]2O[C@H]2CC(C)(NCc3ccc(-c4ccc(C(F)(F)F)cc4)cc3)[C@H](O)[C@H](C)O2)Oc2ccc(cc2Cl)[C@H]1O (stereo partly drawn); 3.45 h
CN[C@H](CC(C)C)C(=O)N[C@H]1C(=O)N[C@@H](CC(N)=O)C(=O)N[C@H]2C(=O)N[C@H]3C(=O)N[C@H](C(=O)N[C@H](C(=O)O)c4cc(O)c(CNCCO[C@@H]5OC(CO)[C@H](O)C(O)C5O)c(O)c4-c4cc3ccc4O)[C@H](O)c3ccc(c(Cl)c3)Oc3cc2cc(c3OC2O[C@H](CO)C(O)C(O)[C@H]2O[C@@H]2CC(C)[C@@H](O)C(C)(NCc3ccc(-c4ccc(C(F)(F)F)cc4)cc3)C2)Oc2ccc(cc2Cl)[C@H]1O (stereo partly drawn); 2.94 h
CN[C@H](CC(C)C)C(=O)N[C@H]1C(=O)N[C@@H](CC(N)=O)C(=O)N[C@H]2C(=O)N[C@@H]3C(=O)N[C@H](C(=O)N[C@H](C(=O)O)c4cc(O)c(CNC5C(O)OC(CO)[C@H](O)[C@@H]5O)c(O)c4-c4cc3ccc4O)[C@H](O)c3ccc(c(Cl)c3)Oc3cc2cc(c3O[C@@H]2O[C@H](CO)C(O)C(O)[C@H]2O[C@H]2CC(C)(NCc3ccc(-c4ccc(Cl)cc4)cc3)[C@H](O)[C@H](C)O2)Oc2ccc(cc2Cl)[C@H]1O (stereo partly drawn); 3.81 h

----------
Tested on: vancomycin-middle resistant Staphylococcus aureus Mu50 strain
Assay Comment: In vitro antibacterial activity assay (MIC, CLSI dilution method)
Assay type: cell-based
Particulars: Staphylococcus aureus, 16 h, read-out: MIC Mu50
Measurement Kind: MIC (µg/mL)

C#Cc1ccc(CNC2(C)C[C@H](O[C@@H]3C(O)C(O)[C@@H](CO)O[C@H]3Oc3c4cc5cc3Oc3ccc(cc3Cl)[C@@H](O)[C@@H](NC(=O)[C@@H](CC(C)C)NC)C(=O)N[C@@H](CC(N)=O)C(=O)N[C@H]5C(=O)N[C@@H]3C(=O)N[C@H](C(=O)N[C@H](C(=O)O)c5cc(O)c(CNC6C(O)OC(CO)[C@H](O)[C@@H]6O)c(O)c5-c5cc3ccc5O)[C@H](O)c3ccc(c(Cl)c3)O4)O[C@@H](C)[C@H]2O)cc1 (stereo partly shown); 8
CN[C@H](CC(C)C)C(=O)N[C@H]1C(=O)N[C@@H](CC(N)=O)C(=O)N[C@H]2C(=O)N[C@H]3C(=O)N[C@H](C(=O)N[C@H](C(=O)O)c4cc(O)c(CNCCCNC(=O)[C@H](O)[C@@H](O)[C@H](O)[C@H](O)CO)c(O)c4-c4cc3ccc4O)[C@H](O)c3ccc(c(Cl)c3)Oc3cc2cc(c3OC2O[C@H](CO)C(O)C(O)[C@H]2O[C@@H]2CC(C)[C@@H](O)C(C)(NCc3ccc(-c4ccc(Cl)cc4)cc3)C2)Oc2ccc(cc2Cl)[C@H]1O (stereo partly shown); 0.125
CN[C@H](CC(C)C)C(=O)N[C@H]1C(=O)N[C@@H](CC(N)=O)C(=O)N[C@H]2C(=O)N[C@@H]3C(=O)N[C@H](C(=O)N[C@H](C(=O)O)c4cc(O)c(CNC5C(O)OC(CO)[C@H](O)[C@@H]5O)c(O)c4-c4cc3ccc4O)[C@H](O)c3ccc(c(Cl)c3)Oc3cc2cc(c3O[C@@H]2O[C@H](CO)C(O)C(O)[C@H]2O[C@H]2CC(C)(NCc3ccc(-c4ccc(Cl)cc4)cc3)[C@H](O)[C@H](C)O2)Oc2ccc(cc2Cl)[C@H]1O (stereo partly shown); 0.125
CN[C@H](CC(C)C)C(=O)N[C@H]1C(=O)N[C@@H](CC(N)=O)C(=O)N[C@H]2C(=O)N[C@H]3C(=O)N[C@H](C(=O)N[C@H](C(=O)O)c4cc(O)c(CNCCO[C@@H]5OC(CO)[C@H](O)C(O)C5O)c(O)c4-c4cc3ccc4O)[C@H](O)c3ccc(c(Cl)c3)Oc3cc2cc(c3OC2O[C@H](CO)C(O)C(O)[C@H]2O[C@@H]2CC(C)[C@@H](O)C(C)(NCc3ccc(-c4ccc(C(F)(F)F)cc4)cc3)C2)Oc2ccc(cc2Cl)[C@H]1O (stereo partly shown); 0.25
CCCCCc1ccc(CNC2(C)C[C@H](O[C@@H]3C(O)C(O)[C@@H](CO)O[C@H]3Oc3c4cc5cc3Oc3ccc(cc3Cl)[C@@H](O)[C@@H](NC(=O)[C@@H](CC(C)C)NC)C(=O)N[C@@H](CC(N)=O)C(=O)N[C@H]5C(=O)N[C@@H]3C(=O)N[C@H](C(=O)N[C@H](C(=O)O)c5cc(O)c(CNC6C(O)OC(CO)[C@H](O)[C@@H]6O)c(O)c5-c5cc3ccc5O)[C@H](O)c3ccc(c(Cl)c3)O4)O[C@@H](C)[C@H]2O)cc1 (stereo partly shown); 0.5
CN[C@H](CC(C)C)C(=O)N[C@H]1C(=O)N[C@@H](CC(N)=O)C(=O)N[C@H]2C(=O)N[C@@H]3C(=O)N[C@H](C(=O)NC(C(=O)NCCCN(C)C)c4cc(O)cc(O)c4-c4cc3ccc4O)[C@H](O)c3ccc(c(Cl)c3)Oc3cc2cc(c3OC2O[C@H](CO)C(O)C(O)[C@H]2O[C@H]2CC(C)(NCc3ccc(-c4ccc(Cl)cc4)cc3)[C@H](O)C(C)O2)Oc2ccc(cc2Cl)[C@H]1O (stereo partly shown); 1
CN[C@H](CC(C)C)C(=O)N[C@H]1C(=O)N[C@@H](CC(N)=O)C(=O)N[C@H]2C(=O)N[C@@H]3C(=O)N[C@H](C(=O)N[C@H](C(=O)O)c4cc(O)c(CNCCCNC(=O)[C@H](O)[C@@H](O)[C@H](O[C@@H]5OC(CO)[C@H](O)C(O)[C@@H]5O)[C@H](O)CO)c(O)c4-c4cc3ccc4O)[C@H](O)c3ccc(c(Cl)c3)Oc3cc2cc(c3OC2O[C@H](CO)C(O)C(O)[C@H]2O[C@H]2CC(C)(NCc3ccc(-c4ccc(Cl)cc4)cc3)[C@H](O)C(C)O2)Oc2ccc(cc2Cl)[C@H]1O (stereo partly shown); 0.5
CN[C@H](CC(C)C)C(=O)N[C@H]1C(=O)N[C@@H](CC(N)=O)C(=O)N[C@H]2C(=O)N[C@H]3C(=O)N[C@H](C(=O)N[C@H](C(=O)O)c4cc(O)c(CNCCO[C@H]5OC(CO)[C@@H](O)C(O)C5O)c(O)c4-c4cc3ccc4O)[C@H](O)c3ccc(c(Cl)c3)Oc3cc2cc(c3OC2O[C@H](CO)C(O)C(O)[C@H]2O[C@@H]2CC(C)[C@@H](O)C(C)(NCc3ccc(-c4ccc(Cl)cc4)cc3)C2)Oc2ccc(cc2Cl)[C@H]1O (stereo partly shown); 4
CN[C@H](CC(C)C)C(=O)N[C@H]1C(=O)N[C@@H](CC(N)=O)C(=O)N[C@H]2C(=O)N[C@@H]3C(=O)N[C@H](C(=O)N[C@H](C(=O)NCCCNC(=O)[C@H](O)[C@@H](O)[C@H](O)[C@H](O)CO)c4cc(O)cc(O)c4-c4cc3ccc4O)[C@H](O)c3ccc(c(Cl)c3)Oc3cc2cc(c3OC2O[C@H](CO)C(O)C(O)[C@H]2O[C@H]2CC(C)(NCc3ccc(-c4ccc(Cl)cc4)cc3)[C@H](O)C(C)O2)Oc2ccc(cc2Cl)[C@H]1O (stereo partly shown); 4
